- Tested on: BDF1 mice, L1210 terephthalanilide-resistant leukemia ip, survival T/C
- experimentalDetails: NCI In Vivo Anticancer Drug Screen. Data for tumor model L1210 Leukemia resistant to A Terephthalanilide; NSC 38280 (intraperitoneal) in B6D2F1 (BDF1) mice
- testSettings: endpoint: mean survival time; dose: 25.0 mg/kg/injection; schedule: Q01DX Z (ip); vehicle: saline
Inconclusive results and toxic doses are left out. Rule for the calls: active = survival T/C of 150% or more; inactive = T/C below 125% in these data.
Reply using exactly one outcome from true (1) (active), false (0) (inactive)

CN(C)c1ccc(/C=C/c2ccnc3ccccc23)cc1 ... false (0)
O=P1(N(CCCl)CCCl)NCCCO1 (centres undefined) ... true (1)
O=c1[nH]c(=O)n(C2CC(O)C(CO)O2)cc1F (centres undefined) ... false (0)

Here is the next item to consider.
input: Outcome? COS(C)(=O)=O
output: false (0)

###

- Tested on: BDF1 mice, L1210 terephthalanilide-resistant leukemia ip, survival T/C
- experimentalDetails: NCI In Vivo Anticancer Drug Screen. Data for tumor model L1210 Leukemia resistant to A Terephthalanilide; NSC 38280 (intraperitoneal) in B6D2F1 (BDF1) mice
- testSettings: endpoint: mean survival time; dose: 0.5 mg/kg/injection; schedule: Q01DX010 (ip); vehicle: saline; higher = longer survival
Toxic doses and inconclusive results are not listed.
parameter: T/C

Take a look at these entries with their results.
CS(=O)(=O)OCCN(CCOS(C)(=O)=O)c1ccc(N=O)cc1 ... 122 % of control
NC(=O)N(CCCl)N=O ... 162 % of control
NC(Cc1c[nH]c2ccc(N(CCCl)CCCl)cc12)C(=O)O (centres undefined) ... 117 % of control

Could you now consider this next compound?
input: What does the data say about its T/C? Entry: C1CN1c1nc(N2CC2)nc(N2CC2)n1
output: 104 % of control

###

- Tested on: BDF1 mice, L1210 terephthalanilide-resistant leukemia ip, survival T/C
- experimentalDetails: NCI In Vivo Anticancer Drug Screen. Data for tumor model L1210 Leukemia resistant to A Terephthalanilide; NSC 38280 (intraperitoneal) in B6D2F1 (BDF1) mice
- testSettings: endpoint: mean survival time; dose: 25.0 mg/kg/injection; schedule: Q01DX Z (ip); vehicle: carboxymethylcellulose (CMC)
Inconclusive results and toxic doses are left out. The calls were made as follows: active = survival T/C of 150% or more; inactive = T/C below 125% in these data.
Your answer must be one of the following: TRUE (active), FALSE (inactive)

Illustrative cases are given below, each with its answer.
S=c1nc[nH]c2nc[nH]c12 ... TRUE
CC(CCC(C)OS(C)(=O)=O)OS(C)(=O)=O (stereo not drawn) ... FALSE

input: // return assay outcome for C[C@H]1C(=O)O[C@@H]2CCN3CC=C(COC(=O)[C@](C)(O)[C@@]1(C)O)[C@H]23
output: FALSE

input: What did this assay record as the result for Cn1c(O)c(N=NC(N)=S)c2ccccc21 ?
output: FALSE

input: Outcome logged for O=C1C(NC(=O)C2CCCCC2)=C(N2CC2)C(=O)C(NC(=O)C2CCCCC2)=C1N1CC1 in this assay:
output: FALSE

input: How was CN(C)C(=S)N=Nc1c(O)[nH]c2ccccc12 classified in this test?
output: FALSE

input: Outcome? CCn1cnc2c(=S)nc[nH]c21
output: FALSE

input: What classification did N#CCSc1ncnc2nc[nH]c12 end up with in this test?
output: FALSE

input: Dear colleague, could you share the recorded outcome for Nc1ncnc2[nH]ncc12 when you have a moment?
output: FALSE

input: Returns: the outcome recorded for c1ccc(CNc2ncnc3[nH]ncc23)cc1 in this assay.
output: FALSE

###

T/C values by entry
- Test system: BDF1 mice, L1210 terephthalanilide-resistant leukemia ip, survival T/C
- experimentalDetails: NCI In Vivo Anticancer Drug Screen. Data for tumor model L1210 Leukemia resistant to A Terephthalanilide; NSC 38280 (intraperitoneal) in B6D2F1 (BDF1) mice
- testSettings: endpoint: mean survival time; dose: 50.0 mg/kg/injection; schedule: Q01DX Z (ip); vehicle: saline; higher = longer survival
Toxic doses and inconclusive results are not listed.

Take a look at these entries with their results.
O=c1[nH]c(=O)n(C2CC(O)C(CO)O2)cc1F (configuration not stated) ... 178 % of control
CN(C)c1ccc(/C=C/c2ccnc3ccccc23)cc1 ... 90 % of control
O=c1cnn(C2OC(CO)C(O)C2O)c(=O)[nH]1 (configuration not stated) ... 172 % of control
CCOC(N)=O ... 107 % of control
COS(C)(=O)=O ... 101 % of control
CSc1ncnc2c1ncn2C1OC(CO)C(O)C1O (configuration not stated) ... 101 % of control

Turning now to a further record.
input: I am curious: what T/C value has been reported for CCCNc1ncnc2[nH]ncc12 ?
output: 93 % of control

###

- Test system: BDF1 mice, L1210 terephthalanilide-resistant leukemia ip, survival T/C
- experimentalDetails: NCI In Vivo Anticancer Drug Screen. Data for tumor model L1210 Leukemia resistant to A Terephthalanilide; NSC 38280 (intraperitoneal) in B6D2F1 (BDF1) mice
- testSettings: endpoint: mean survival time; dose: 250.0 mg/kg/injection; schedule: Q01DX Z (ip); vehicle: carboxymethylcellulose (CMC); higher = longer survival
Toxic doses and inconclusive results are not listed.
Measured T/C, listed per entry for reference.

Solved entries:
O=c1cn[nH]c(=O)[nH]1 ... 106 % of control
O=C1C(NC(=O)C2CCCCC2)=C(N2CC2)C(=O)C(NC(=O)C2CCCCC2)=C1N1CC1 ... 122 % of control
CS(=O)(=O)OCC(O)C(O)COS(C)(=O)=O (centres undefined) ... 100 % of control

The record that follows has no T/C shown yet.
input: I have this molecule here, CC(=O)OCC1OC(n2ncc(=O)[nH]c2=O)C(OC(C)=O)C1OC(C)=O (centres undefined) , and I need its recorded T/C.
output: 206 % of control

###

- Test system: BDF1 mice, L1210 terephthalanilide-resistant leukemia ip, survival T/C
- experimentalDetails: NCI In Vivo Anticancer Drug Screen. Data for tumor model L1210 Leukemia resistant to A Terephthalanilide; NSC 38280 (intraperitoneal) in B6D2F1 (BDF1) mice
- testSettings: endpoint: mean survival time; dose: 125.0 mg/kg/injection; schedule: Q01DX Z (ip); vehicle: carboxymethylcellulose (CMC)
Inconclusive results and toxic doses are left out. The calls were made as follows: active = survival T/C of 150% or more; inactive = T/C below 125% in these data.
Mark one answer only. Choices: 1 (yes) (active), 0 (no) (inactive)

Previously resolved entries follow.
O=C1C(NC(=O)C2CCCCC2)=C(N2CC2)C(=O)C(NC(=O)C2CCCCC2)=C1N1CC1 ... 0 (no)
CC(=O)OCC1OC(n2ncc(=O)[nH]c2=O)C(OC(C)=O)C1OC(C)=O (stereo not given) ... 1 (yes)
O=c1cn[nH]c(=O)[nH]1 ... 0 (no)
Nc1nc(SCc2ccccc2)c2[nH]cnc2n1 ... 0 (no)

Then this molecule:
input: Outcome logged for CSc1ncnc2nc[nH]c12 in this assay:
output: 0 (no)

###

Here, each record is paired with measured T/C data.
- Test system: BDF1 mice, L1210 terephthalanilide-resistant leukemia ip, survival T/C
- experimentalDetails: NCI In Vivo Anticancer Drug Screen. Data for tumor model L1210 Leukemia resistant to A Terephthalanilide; NSC 38280 (intraperitoneal) in B6D2F1 (BDF1) mice
- testSettings: endpoint: mean survival time; dose: 5.0 mg/kg/injection; schedule: Q01DX Z (ip); vehicle: saline; higher = longer survival
Toxic doses and inconclusive results are not listed.

input: Query: T/C; subject: C[C@@H]1C[C@@H]([C@H](O)CC2CC(=O)NC(=O)C2)C(=O)[C@@H](C)C1
output: 106 % of control

input: Endpoint output: T/C of CCOC(=O)NP(=O)(N1CC1(C)C)N1CC1(C)C (centres undefined) . Value?
output: 101 % of control

input: Returns the measured T/C for the input molecule. Input: O[C@H](CN1CC1)[C@@H](O)CN1CC1
output: 188 % of control

input: Reported T/C for O=P1(N(CCCl)CCCl)NCCCO1 (centres undefined) : what is it?
output: 102 % of control

###

- Test system: BDF1 mice, L1210 terephthalanilide-resistant leukemia ip, survival T/C
- experimentalDetails: NCI In Vivo Anticancer Drug Screen. Data for tumor model L1210 Leukemia resistant to A Terephthalanilide; NSC 38280 (intraperitoneal) in B6D2F1 (BDF1) mice
- testSettings: endpoint: mean survival time; dose: 6.25 mg/kg/injection; schedule: Q01DX010 (ip); vehicle: saline
- Protocol: The antitumor activity of compounds was measured in mice bearing transplantable tumors. Survival or tumor size were measured and the results are expressed as the measurement made in the treated group (T) divided by the measurement made in the vehicle treated control group (C). The tumor model used in this assay is L1210 Leukemia resistant to A Terephthalanilide; NSC 38280 (intraperitoneal) in B6D2F1 (BDF1) mice
Inconclusive results and toxic doses are left out. The calls were made as follows: active = survival T/C of 150% or more; inactive = T/C below 125% in these data.
I would appreciate it if you answered using one of these outcomes: active, inactive

Record excerpt, results attached:
O=C1C(NC(=O)C2CCCCC2)=C(N2CC2)C(=O)C(NC(=O)C2CCCCC2)=C1N1CC1 ... inactive
C[C@H]1C(=O)O[C@@H]2CCN3CC=C(COC(=O)[C@](C)(O)[C@@]1(C)O)[C@H]23 ... inactive
O=NN(CCCl)C(=O)NCCCl ... active

Shifting focus to the molecule that follows.
input: Lab log entry: N=[N+]=CC(=O)OCC(N)C(=O)O (centres undefined) — outcome as called in the assay?
output: active
